system: E. coli ATCC 25922; assay type: cell-based; conditions: ATCC 25922
Where no end group is shown, it is not given here.
reported endpoint: MIC E. coli 25922 Expt. #2

The cases that follow already have their MIC E. coli 25922 Expt. #2 on record.
> print(dat)
                             query.sequence           reported.endpoint  result.value
1  KGLKKGLKLLKKLLKL [SEQ ID NO:2, KGLKKGLKLLKKLLKL]  MIC E. coli 25922 Expt. #2       2 µg/mL
2  KGGKKLLKGLKKLLKL [SEQ ID NO:43, KGGKKLLKGLKKLLKL]  MIC E. coli 25922 Expt. #2       2 µg/mL
3  KGLKKLLKGLKKLLKL [SEQ ID NO:1, KGLKKLLKGLKKLLKL]  MIC E. coli 25922 Expt. #2  2 to 4 µg/mL
4  KGLKKLGKLLKKLLKL [SEQ ID NO:42, KGLKKLGKLLKKLLKL]  MIC E. coli 25922 Expt. #2       2 µg/mL
5  KGLKKLLKLLKKGLKL [SEQ ID NO:5, KGLKKLLKLLKKGLKL]  MIC E. coli 25922 Expt. #2       2 µg/mL

Entry KGLKKLLKLGKKLLKL [SEQ ID NO:3, KGLKKLLKLGKKLLKL] ; MIC E. coli 25922 Expt. #2 = 2 µg/mL
